Reference source for all entries: ChEMBL document CHEMBL6134909

Protocol text: Metabolic stability in BALB/c mouse liver microsomes assessed as compound remaining at 2 to 10 uM measured after 60 mins in presence of ketoconazole/NADPH by LC-MS/MS analysis
Type: ADME, Microsome
Measurement conditions: with ketoconazole, dose 2-10 µM, read-out: Stability
What remaining at 1 h, up to 10 µM was measured for each of the following?
Answers are plain numbers, in %.

List the reported remaining at 1 h, up to 10 µM of each compound below.
1. Fc1ccc(-c2nc3ncccn3c2NC2CCCCC2)cc1F
2. COc1ccc(-c2nc3ncccn3c2NC2CCCCC2)cc1

Return:
1: 51.7; 2: 39.4

###

Protocol text: Cytotoxicity against human A549 cells incubated for 48 hrs by CellTiter-Glo Luminescent Cell Viability Assay
Type: toxicity, cell-based
Assay metric: CC50 at 48 h

Example entries begin here.
# Smiles text, CC50 at 48 h
records = [
    ("Cc1cc(C)n2c(NC3CCCCC3)c(-c3ccc(F)c(F)c3)nc2n1", "> 25 µM"),
    ("Fc1ccc(-c2nc3ncccn3c2NC2CCCCC2)cc1", "> 100 µM"),
]

I need CC50 at 48 h for every entry listed below, if you could help.
1. c1ccc(-c2nc3ncccn3c2NC2CCCC2)cc1
2. COc1cc(-c2nc3nc(C)cc(C)n3c2NC2CCCCC2)ccc1F
3. COCOc1ccc(-c2nc3ncccn3c2NC2CCCCC2)cc1
4. CN1CCN(c2ccc(-c3nc4ncc(Cl)cn4c3NC3CCCCC3)cc2F)CC1
5. Fc1ccc(-c2nc3ncc(Cl)cn3c2NC2CCCCC2)cc1F

Return:
["> 100 µM", "> 25 µM", "> 100 µM", "31 µM", "> 100 µM"]

###

Please respond with reported CC50 at 48 h for every item in the list.
Protocol text: Cytotoxicity against human A549 cells incubated for 48 hrs by CellTiter-Glo Luminescent Cell Viability Assay
Format: toxicity, cell-based
One number for each entry, in µM.

The following molecules have reported results that may help.
# Smiles text, Observed value
rows = [
    ("Fc1ccc(-c2nc3ncc(Cl)cn3c2NC2CCCC2)cc1F", 25),
    ("COCOc1ccc(-c2nc3ncc(Cl)cn3c2NC2CCCCC2)c(F)c1", 50),
    ("Cc1cc(C)n2c(NC3CCCCC3)c(-c3ccc(Cl)c(Cl)c3)nc2n1", 12),
    ("COCOc1cc(F)c(-c2nc3ncc(Cl)cn3c2NC2CCCCC2)c(OC)c1", 48),
    ("Cc1cc(C)n2c(NC3CCCCC3)c(-c3ccc(Cl)s3)nc2n1", 14.8),
    ("Cc1ccc(Cl)c(-c2nc3ncccn3c2NC2CCCCC2)c1F", 27),
]

Now turn to the next molecule.
Enquiry: Return reported CC50 at 48 h. Input molecule: Fc1ccc(-c2nc3ncccn3c2NC2CCCCC2)c(F)c1
Return: 72

###

Protocol text: MRT (infinity) in CD1 mouse at 25 mg/kg, ip
Format: ADME, organism-based
Measurement conditions: in vivo
Assignment: determine reported MRT inf for the given compounds.
Give bare numbers, in h.

# Smiles text, Unit abbrev, MRT inf
measured = [
    ("Oc1ccc(-c2nc3ncccn3c2NC2CCCCC2)c(F)c1", "h", 0.842),
]

Below: the item to evaluate.
Enquiry: Item Fc1cc(OCc2ccc(C(F)(F)F)cc2)ccc1-c1nc2ncccn2c1NC1CCCCC1 : provide MRT inf
Return: 6.25

###

Protocol text: Cytotoxicity against human A549 cells incubated for 48 hrs by CellTiter-Glo Luminescent Cell Viability Assay
Assay type: toxicity, cell-based
Assay metric: CC50 at 48 h

# Smiles text, Observed value
measured = [
    ("COCCOCOc1ccc(-c2nc3ncc(Cl)cn3c2NC2CCCCC2)cc1", "> 100 µM"),
]

For the 5 molecules below, give their CC50 at 48 h values.
1. Fc1cc(-c2nc3ncc(Cl)cn3c2NC2CCCCC2)ccc1N1CCOCC1
2. CC(C)Oc1ccc(-c2nc3ncccn3c2NC2CCCCC2)cc1
3. Cc1cc(C)n2c(NC34CC5CC(C)(CC(C)(C5)C3)C4)c(-c3ccccc3)nc2n1
4. COCOc1ccc(-c2nc3ncccn3c2NC2CCCCCC2)cc1
5. CCN(c1c(-c2ccc(F)c(F)c2)nc2ncccn12)C1CCCCC1

Return:
1. > 100 µM
2. > 100 µM
3. 32 µM
4. 52 µM
5. > 100 µM

###

Protocol text: Metabolic stability in human liver microsomes assessed as compound remaining at 2 to 10 uM measured after 60 mins in presence of NADPH by LC-MS/MS analysis
Assay type: ADME, Microsome
Measurement conditions: dose 2-10 µM, read-out: Stability
Task for the reader: assign each of the following compounds its reported remaining at 1 h, up to 10 µM.
Answers are plain numbers, in %.

Sample records with remaining at 1 h, up to 10 µM:
# Smiles text, Unit abbrev, remaining at 1 h, up to 10 µM
records = [
    ("CCN(c1c(-c2ccc(F)c(F)c2)nc2ncccn12)C1CCCCC1", "%", 1),
    ("COc1ccc(-c2nc3ncccn3c2NC2CCCCC2)cc1", "%", 21.1),
    ("Oc1ccc(-c2nc3ncccn3c2NC2CCCCC2)c(F)c1", "%", 68.9),
    ("COCOc1ccc(-c2nc3ncccn3c2NC2CCCCC2)cc1", "%", 63.7),
    ("COCOc1ccc(-c2nc3ncc(Cl)cn3c2NC2CCCCC2)c(F)c1", "%", 2.6),
    ("Cc1cc(C)n2c(NC3CCCCC3)c(-c3ccnc(Cl)c3)nc2n1", "%", 0.5),
    ("COCOc1ccc(-c2nc3ncccn3c2NC2CCCCC2)c(F)c1", "%", 62.3),
    ("Cc1cc(C)n2c(NC3CCCCC3)c(-c3nccs3)nc2n1", "%", 19.8),
]

Batch lookup, remaining at 1 h, up to 10 µM per entry.
1. COCOc1ccc(-c2nc3ncc(Cl)cn3c2NC2CCCCCC2)cc1
2. Fc1ccc(-c2nc3ncccn3c2NC2CCCCC2)c(F)c1
3. Fc1ccc(-c2nc3ncc(Cl)cn3c2NC2CCCCCC2)cc1F
4. Fc1ccc(-c2nc3ncccn3c2NC2CCCCC2)cc1F

Return:
1. 13.8
2. 33.4
3. 2.1
4. 2.2

Enquiry: Please list remaining at 1 h, up to 10 µM recorded for the compound Fc1cc(OCc2ccc(C(F)(F)F)cc2)ccc1-c1nc2ncccn2c1NC1CCCCC1
Return: 36

###

Protocol text: Cytotoxicity against human A549 cells incubated for 48 hrs by CellTiter-Glo Luminescent Cell Viability Assay
Type: toxicity, cell-based
Assignment: determine reported CC50 at 48 h for the given compounds.

For every record below, what is its CC50 at 48 h?
1. COCOc1ccc(-c2nc3ncccn3c2NC2CCCCC2)c(F)c1
2. COc1ccc(-c2nc3sccn3c2NC2CCCCC2)cc1
3. Fc1ccc(-c2nc3ncccn3c2NC2CCCCC2)cc1N1CCOCC1
4. COc1ccc(COc2ccc(-c3nc4ncccn4c3NC3CCCCC3)c(F)c2)cc1
5. COc1cc(OC)cc(-c2nc3ncccn3c2NC2CCCCC2)c1

Return:
1. > 100 µM
2. 63.1 µM
3. > 25 µM
4. 39 µM
5. 47 µM

Hey, quick one: what's CC50 at 48 h for each of these?
1. Cc1cc(C)n2c(NC3CCCCC3)c(-c3cc(Br)ncc3F)nc2n1
2. Cc1cc(C)n2c(NC3CCCCC3)c(-c3ccc(F)c(N4CCOCC4)c3)nc2n1
3. CN1CCOc2cc(-c3nc4ncc(Cl)cn4c3NC3CCCCC3)ccc21
4. CN1CCN(c2ccc(-c3nc4ncc(Cl)cn4c3NC3CCCCC3)c(F)c2)CC1
5. Oc1ccc(-c2nc3ncc(Cl)cn3c2NC2CCCCCC2)cc1

Return:
1. > 25 µM
2. > 25 µM
3. > 100 µM
4. 46 µM
5. 50 µM

For each entry beneath this line, provide reported CC50 at 48 h.
1. COCOc1ccc(-c2nc3ncc(Cl)cn3c2NC2CCCCCC2)cc1
2. Fc1cc(-c2nc3ncc(Cl)cn3c2NC2CCCCC2)ccc1N1CCCC1
3. Cc1cc(C)n2c(NC3CCCCC3)c(-c3nccs3)nc2n1
4. Fc1cc(N2CCOCC2)ccc1-c1nc2ncc(Cl)cn2c1NC1CCCCC1
5. CCOc1ccc(-c2nc3nc(C)cc(C)n3c2NC2CCCCC2)cc1OC
6. Clc1cnc2nc(-c3ccccc3)c(NC3CCCCC3)n2c1

Return:
1. > 100 µM
2. > 100 µM
3. > 25 µM
4. 54 µM
5. > 25 µM
6. > 100 µM

###

Answer each item with its documented CC50 at 48 h.
Protocol text: Cytotoxicity against human A549 cells incubated for 48 hrs by CellTiter-Glo Luminescent Cell Viability Assay
Format: toxicity, cell-based

// worked examples, CC50 at 48 h included
# Smiles text, CC50 at 48 h
measured = [
    ("Cc1cc(C)n2c(NC3CCCCC3)c(-c3cccc4c3OC(F)(F)O4)nc2n1", "> 25 µM"),
    ("Oc1ccc(-c2nc3ncccn3c2NC2CCCCC2)c(F)c1", "> 100 µM"),
    ("COCOc1ccc(-c2nc3ncc(Br)cn3c2NC2CCCCCC2)cc1", "> 100 µM"),
    ("Fc1cc(OCc2ccc(C(F)(F)F)cc2)ccc1-c1nc2ncccn2c1NC1CCCCC1", "> 100 µM"),
    ("Fc1ccc(-c2nc3ncccn3c2NC2CCCCC2)cc1F", "> 100 µM"),
]

Hi, could you look up CC50 at 48 h for each item in my list?
1. Cc1cc(C)n2c(NC3CCCCC3)c(-c3ccnc(Cl)c3)nc2n1
2. Cc1cc(C)n2c(NC3CCCCC3)c(-c3ccncc3)nc2n1
3. Fc1ccc(-c2nc3ncc(Cl)cn3c2NC2CCCCCC2)cc1F

Return:
["> 25 µM", "> 25 µM", "> 100 µM"]
